- testedTarget: UniProtKB P41146
- Sequence (P41146 whole entry): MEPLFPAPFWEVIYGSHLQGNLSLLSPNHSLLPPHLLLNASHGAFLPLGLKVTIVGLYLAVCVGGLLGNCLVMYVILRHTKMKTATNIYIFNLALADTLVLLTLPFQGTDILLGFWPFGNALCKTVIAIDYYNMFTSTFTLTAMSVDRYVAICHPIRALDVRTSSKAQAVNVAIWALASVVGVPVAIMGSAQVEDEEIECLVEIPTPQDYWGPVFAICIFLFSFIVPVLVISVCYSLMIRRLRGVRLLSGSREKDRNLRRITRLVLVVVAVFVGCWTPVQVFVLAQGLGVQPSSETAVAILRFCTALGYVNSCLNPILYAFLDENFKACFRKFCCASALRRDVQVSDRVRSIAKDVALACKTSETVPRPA
- methodNotes: Cell-based NOP cAMP assay (LANCE cAMP, TR-FRET)
- details: antagonism of nociceptin in cAMP assay, cells expressing human NOP, forskolin-stimulated; values given as ranges; read-out: NOP (pIC50) (converted)
propertyMeasured: IC50

Given the molecule NC(=O)C1(NCCC2CCC(c3cccc(F)c3Cl)CC2)CCCC1 (stereo not drawn) , what is its reported IC50?
> 1000 nM

Data request, read-out IC50, for Cc1cnccc1C1CCC(CCNC2CCN(C)CC2)CC1 (stereo not drawn)
> 1000 nM

// lookup IC50 for O=C1CC(NCC[C@H]2CC[C@H](c3ccc(F)cc3Cl)CC2)CCN1 (mixture of isomers)
1 to 10 nM

Entry under review: Fc1ccc([C@H]2CC[C@@H](CCNC3CCOCC3F)CC2)c(Cl)c1 (single isomer, unassigned) . Reported IC50?
< 1 nM

What value of IC50 has been reported for the following molecule? CC(=O)N1CCC(NCCC2CCC(c3ncccc3C)CC2)CC1 (stereo not drawn)
> 1000 nM

Which IC50 value belongs to Cc1ccncc1C1CCC(CCNC2(C(N)=O)CCCC2)CC1 (stereo not drawn) ?
> 1000 nM

Where do the numbers come from? From patent US11945808B2.
